The measured values listed here are drawn from patent US20240092759A1.

Overview of recorded CC50 for various compounds
- Tested on: Vero E6 cells
- Experimental protocol: Cellular cytotoxicity by MTT in Vero E6 cells
- Test context: read-out: CC50 Vero E6, absence of virus

Task item: Please look up its CC50: `N#Cc1ccccc1-c1cc(-c2cc(Cl)cc(OCCC(F)(F)F)c2)c(=O)n(-c2cccnc2)c1`
Reply: 22 µM

Task item: Please look up its CC50: `CCCOc1cc(Cl)cc(-c2cc(-c3ccccc3C#N)cn(-c3cccnc3)c2=O)c1`
Reply: 22 µM

Task item: Please look up its CC50: `O=c1[nH]cc(-c2cc(-c3cc(Cl)cc(OCc4ccccc4)c3)c(=O)n(-c3cccnc3)c2)c(=O)[nH]1`
Reply: 12.3 µM

Task item: Please look up its CC50: `O=c1[nH]cc(-c2cc(-c3cc(Cl)cc(OCc4ccccc4Cl)c3)c(=O)n(-c3cccnc3)c2)c(=O)[nH]1`
Reply: 1.7 µM

Task item: Please look up its CC50: `N#Cc1ccccc1-c1cc(-c2cc(Cl)cc(OCC3CC3)c2)c(=O)n(-c2cccnc2)c1`
Reply: > 100 µM

Task item: Please look up its CC50: CCC(CC)COC(=O)[C@H](C)N[P@](=O)(OC[C@H]1O[C@@](C#N)(c2ccc3c(N)ncnn23)[C@H](O)[C@@H]1O)Oc1ccccc1 [remdesivir, reference compound]
Reply: 72 µM

Task item: Please look up its CC50: `O=c1[nH]cc(-c2cc(-c3cc(Cl)c(F)c(OCc4ccccc4Cl)c3)c(=O)n(-c3cccnc3)c2)c(=O)[nH]1`
Reply: 1.15 µM

---

- Test target: recombinant SARS-Cov-2 M^pro (Severe acute respiratory syndrome coronavirus 2 (2019-nCoV) (SARS-CoV-2))
- Experimental protocol: biochemical
- Test context: read-out: IC50 (μM), inhibition of SARS-Cov-2 M^pro; Table 4
Overview of recorded IC50 for various compounds
Use µM as the unit, but write only the number.

Recorded results for 2 compounds are shown here.
[[record]]
mol_smiles = "O=c1[nH]cc(-c2cc(-c3cc(Cl)cc(OCc4ccccc4F)c3)c(=O)n(-c3cccnc3)c2)c(=O)[nH]1"
result_unit = "µM"
numeric_value = 0.024

[[record]]
mol_smiles = "O=c1[nH]cc(-c2cc(-c3cc(Cl)cc(OCc4ccccc4)c3)c(=O)n(-c3cccnc3)c2)c(=O)[nH]1"
result_unit = "µM"
numeric_value = 0.128


Now take the following compound into account.
Task item: Please look up its IC50: `N#Cc1ccccc1-c1cc(-c2cc(Cl)cc(OCCc3ccccc3)c2)c(=O)n(-c2cccnc2)c1`
Reply: 0.51

---

- Test target: recombinant SARS-Cov-2 M^pro (Severe acute respiratory syndrome coronavirus 2 (2019-nCoV) (SARS-CoV-2))
- Experimental protocol: biochemical
- Test context: read-out: IC50 (μM), inhibition of SARS-Cov-2 M^pro; Table 4
Overview of recorded IC50 for various compounds

[[record]]
mol_smiles = "O=c1[nH]cc(-c2cc(-c3cc(Cl)cc(OCc4cccc(F)c4)c3)c(=O)n(-c3cccnc3)c2)c(=O)[nH]1"
result = "0.037 µM"

[[record]]
mol_smiles = "O=c1[nH]cc(-c2cc(-c3cc(Cl)cc(OCc4ccsc4Cl)c3)c(=O)n(-c3cccnc3)c2)c(=O)[nH]1"
result = "0.0265 µM"

[[record]]
mol_smiles = "N#Cc1ccccc1-c1cc(-c2cc(Cl)cc(Cl)c2)c(=O)n(-c2ccc[n+]([O-])c2)c1"
result = "5 to 20 µM"

[[record]]
mol_smiles = "COc1cc(F)cc(-c2cc(-c3c[nH]c(=O)[nH]c3=O)cn(-c3cccnc3)c2=O)c1"
result = "10 to 100 µM"

[[record]]
mol_smiles = "CCCCOc1cc(Cl)cc(-c2cc(-c3c[nH]c(=O)[nH]c3=O)cn(-c3cccnc3)c2=O)c1"
result = "0.25 µM"


Task item: Please look up its IC50: `CC(C)(O)CCOc1cc(Cl)cc(-c2cc(-c3c[nH]c(=O)[nH]c3=O)cn(-c3cccnc3)c2=O)c1`
Reply: 0.25 to 0.5 µM
